target: DNA (cytosine-5)-methyltransferase 1 (Homo sapiens)
Sequence (P26358 whole entry): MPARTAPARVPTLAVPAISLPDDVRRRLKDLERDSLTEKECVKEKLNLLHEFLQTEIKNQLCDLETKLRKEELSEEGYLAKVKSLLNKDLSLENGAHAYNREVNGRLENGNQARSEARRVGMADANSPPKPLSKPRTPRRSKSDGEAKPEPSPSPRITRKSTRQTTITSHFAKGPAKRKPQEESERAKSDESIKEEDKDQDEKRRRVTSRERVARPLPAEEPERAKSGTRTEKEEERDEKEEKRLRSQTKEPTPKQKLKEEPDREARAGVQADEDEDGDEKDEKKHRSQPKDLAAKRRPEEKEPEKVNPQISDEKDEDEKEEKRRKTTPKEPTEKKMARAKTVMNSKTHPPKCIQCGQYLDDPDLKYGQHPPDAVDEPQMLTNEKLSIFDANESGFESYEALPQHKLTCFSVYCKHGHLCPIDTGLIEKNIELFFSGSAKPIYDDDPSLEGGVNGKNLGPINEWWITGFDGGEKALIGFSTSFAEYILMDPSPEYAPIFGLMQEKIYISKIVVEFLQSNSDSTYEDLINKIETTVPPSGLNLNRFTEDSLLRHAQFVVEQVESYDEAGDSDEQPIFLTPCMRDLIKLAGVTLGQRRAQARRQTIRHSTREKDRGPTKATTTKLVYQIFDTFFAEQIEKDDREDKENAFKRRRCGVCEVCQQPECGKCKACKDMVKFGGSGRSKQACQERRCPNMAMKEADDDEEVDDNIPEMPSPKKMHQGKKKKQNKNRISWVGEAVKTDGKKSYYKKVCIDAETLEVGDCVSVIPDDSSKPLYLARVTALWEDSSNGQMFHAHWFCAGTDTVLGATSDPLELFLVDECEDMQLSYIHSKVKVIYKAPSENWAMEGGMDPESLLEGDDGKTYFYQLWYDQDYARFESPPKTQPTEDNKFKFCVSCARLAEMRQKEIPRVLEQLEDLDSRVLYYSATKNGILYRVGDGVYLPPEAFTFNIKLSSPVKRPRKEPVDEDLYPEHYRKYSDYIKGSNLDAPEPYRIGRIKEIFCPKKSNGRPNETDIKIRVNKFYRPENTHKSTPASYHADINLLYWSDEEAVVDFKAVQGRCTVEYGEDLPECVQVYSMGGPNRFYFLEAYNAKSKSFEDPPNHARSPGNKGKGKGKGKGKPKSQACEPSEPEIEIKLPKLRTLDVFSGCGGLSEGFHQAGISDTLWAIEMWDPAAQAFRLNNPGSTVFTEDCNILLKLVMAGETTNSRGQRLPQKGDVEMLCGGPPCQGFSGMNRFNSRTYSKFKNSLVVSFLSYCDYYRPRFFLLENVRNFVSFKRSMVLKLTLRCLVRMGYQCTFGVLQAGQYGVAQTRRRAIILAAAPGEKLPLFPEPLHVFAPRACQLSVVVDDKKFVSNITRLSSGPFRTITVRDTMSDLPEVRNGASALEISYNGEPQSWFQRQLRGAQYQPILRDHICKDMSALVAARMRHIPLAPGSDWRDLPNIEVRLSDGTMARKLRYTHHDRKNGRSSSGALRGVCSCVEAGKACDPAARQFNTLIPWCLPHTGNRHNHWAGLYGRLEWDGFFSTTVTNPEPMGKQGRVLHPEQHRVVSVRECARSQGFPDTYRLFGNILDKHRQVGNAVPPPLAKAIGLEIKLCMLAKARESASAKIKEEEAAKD
pKi: −log10 of the molar value.
recorded.endpoint: pKi

• CC(=O)NCCc1ccc(O)c(-c2c(O)c(O)c3c(c2O)C(=O)c2c(cc(O)c(C(=O)O)c2C(=O)O)C3=O)c1 = 6.52

====

assay: Cytotoxicity activity against human R5-MaRBLE reporter cells assessed as effect on Renilla luciferase activity measured after 7 days by Dual-Glo luciferase reporter assay; format: toxicity, cell-based; conditions: time 7 day
Reported CC50 at 168 h values are given for each entry in this list.
recorded.endpoint: CC50 at 168 h

• CC(=O)NCCc1ccc(O)c(-c2c(O)c(O)c3c(c2O)C(=O)c2c(cc(O)c(C(=O)O)c2C(=O)O)C3=O)c1 [LACCACID ACID A] = 39.5 µM
• N[C@@H](Cc1ccc(O)c(-c2c(O)c(O)c3c(c2O)C(=O)c2c(cc(O)c(C(=O)O)c2C(=O)O)C3=O)c1)C(=O)O = 43.9 µM
